Reference source for all entries: ChEMBL document CHEMBL1136512

Consider the following compounds; for each one, report its pKi.
// pKi: -log10(molar conc.)

Thyroid hormone receptor beta (Homo sapiens, UniProt P10828) / pKi / "O=c1cnn(-c2cc(Cl)c(Oc3ccc(O)c(S(=O)(=O)Nc4ccccc4)c3)c(Cl)c2)c(=O)[nH]1" : value? 10.00

Thyroid hormone receptor beta (Homo sapiens, UniProt P10828) / pKi / O=c1cnn(-c2cc(Cl)c(Oc3ccc(O)c(S(=O)(=O)N4C5CCC4CC4(CCCO4)C5)c3)c(Cl)c2)c(=O)[nH]1 (centres undefined) : value? 9.55

Thyroid hormone receptor beta (Homo sapiens, UniProt P10828) / pKi / "Cc1cc(-n2ncc(=O)[nH]c2=O)cc(Cl)c1Oc1ccc(O)c(C(=O)N2CCCCC2)c1" : value? 8.72

Thyroid hormone receptor beta (Homo sapiens, UniProt P10828) / pKi / "O=C(c1cc(Oc2c(Cl)cc(-n3ncc(=O)[nH]c3=O)cc2Cl)ccc1O)N1CCOCC1" : value? 9.14

Thyroid hormone receptor beta (Homo sapiens, UniProt P10828) / pKi / "Cc1cc(-n2ncc(=O)[nH]c2=O)cc(C)c1Oc1ccc(O)c(S(=O)(=O)N2CCCCC2)c1" : value? 9.34

Thyroid hormone receptor beta (Homo sapiens, UniProt P10828) / pKi / "O=C(c1cc(Oc2c(Cl)cc(-n3ncc(=O)[nH]c3=O)cc2Cl)ccc1O)N1CCCCC1" : value? 9.20

Thyroid hormone receptor beta (Homo sapiens, UniProt P10828) / pKi / "O=C(NC1CCCCC1)c1cc(Oc2c(Cl)cc(-n3ncc(=O)[nH]c3=O)cc2Cl)ccc1O" : value? 10.15

Thyroid hormone receptor beta (Homo sapiens, UniProt P10828) / pKi / "Cc1cc(-n2ncc(=O)[nH]c2=O)cc(Cl)c1Oc1ccc(O)c(S(=O)(=O)N2CCCCC2)c1" : value? 9.89

Thyroid hormone receptor beta (Homo sapiens, UniProt P10828) / pKi / "CSc1ccc(Oc2c(C)cc(-n3ncc(=O)[nH]c3=O)cc2C)cc1C" : value? 8.70

* * *

Measurement Label: Ki (nM)
Please reply with the bare figure in nM and do not write the unit itself.

Thyroid hormone receptor beta (Homo sapiens, UniProt P10828) / Ki / "Cc1cc(N2CCCNC2=O)cc(C)c1Oc1ccc(O)c(C(C)C)c1" : value? 10000

Thyroid hormone receptor beta (Homo sapiens, UniProt P10828) / Ki / "O=c1cnn(-c2cc(Cl)c(Oc3ccc(O)c(S(=O)(=O)N4C5CCC4CC4(C5)OCCO4)c3)c(Cl)c2)c(=O)[nH]1" : value? 0.31

Thyroid hormone receptor beta (Homo sapiens, UniProt P10828) / Ki / CC1(C)C2CCC(NC(=O)c3cc(Oc4c(Cl)cc(-n5ncc(=O)[nH]c5=O)cc4Cl)ccc3O)C1C2 (stereo in doubt; 9j) : value? 0.04

Thyroid hormone receptor beta (Homo sapiens, UniProt P10828) / Ki / "O=c1cnn(-c2cc(Cl)c(Oc3ccc(O)c(S(=O)(=O)NC4CCC4)c3)c(Cl)c2)c(=O)[nH]1" : value? 0.4

Thyroid hormone receptor beta (Homo sapiens, UniProt P10828) / Ki / "Cc1cc(-n2ncc(=O)[nH]c2=O)cc(Cl)c1Oc1ccc(O)c(S(=O)(=O)N2CCN(C)CC2)c1" : value? 13

Thyroid hormone receptor beta (Homo sapiens, UniProt P10828) / Ki / "O=c1cnn(-c2cc(Cl)c(Oc3ccc(O)c(S(=O)(=O)n4ccc5ccccc54)c3)c(Cl)c2)c(=O)[nH]1" : value? 0.23
